# IC50 listing for each entry below
# Tested on: S1T (cell strain originated from an ATL patient)
# EXPERIMENT SUMMARY: Growth inhibition of S1T cells, 4-day culture, MTT method
# Type: cell-based
# CONDITION CONTEXT: Table 2; S1T cells, 4 days, MTT; mean of at least 2 experiments; read-out: IC50 (μM) S1T cell
Answer with the value and then the unit.

Take a look at these entries with their results.
INSERT INTO results (test_smiles, assay_endpoint, obs_value) VALUES
  ('CC(=S)c1cc2c(cc1O)C(C)(C)CCC2(C)C', 'IC50', '6.9 µM'),
  ('CN(C)C=CC(=O)c1cc2c(cc1O)C(C)(C)CCC2(C)C', 'IC50', '2.1 µM'),
  ('CC1(C)CCC(C)(C)c2cc(C(N)=O)ccc21', 'IC50', '37 µM');

// moving on: another record for IC50
Qu. So what does the record say about IC50 for CON(C)C(=O)c1ccc2c(c1)C(C)(C)CCC2(C)C ?
Ans. 12.6 µM
